- ASSAY COMMENT: In vitro glutathione peroxidase activity at 2*10e-7M using tert-butyl hydroperoxide, activity given in percentage of ebselen''s activity
- Format: functional
GSH-Px activity for assorted molecules
# output: bare number, no unit

SMILES TEXT | GSH-Px activity
CNc1ccccc1[Se][Se]c1ccccc1NC | 267

# next molecule below
q: I am curious: what GSH-Px activity value has been reported for CC(C)(Sc1cc(C(C)(C)C)c(O)c(C(C)(C)C)c1)Sc1cc(C(C)(C)C)c(O)c(C(C)(C)C)c1 ?
a: 0

---

- ASSAY COMMENT: In vitro glutathione peroxidase activity at 2*10e-7M using tert-butyl hydroperoxide, activity given in percentage of ebselen''s activity
- Format: functional
GSH-Px activity for assorted compounds

COMPOUND | GSH-Px activity
O=c1[nH]c2ccc(Cc3ccccc3)cc2[se]1 | -1
Nc1ccc(C(O)c2ccccc2)cc1[Se][Se]c1cc(C(O)c2ccccc2)ccc1N (stereo not drawn) | 245
Nc1ccc(C(=O)c2ccc(Cl)cc2)cc1[Se][Se]c1cc(C(=O)c2ccc(Cl)cc2)ccc1N | 279
O=C(c1ccccc1)c1ccc2[nH]c(=O)[se]c2c1 | 0

q: I am curious: what GSH-Px activity value has been reported for CC(=O)c1ccc(N)c([Se][Se]c2cc(C(C)=O)ccc2N)c1 ?
a: 238

q: Note, next up: Nc1ccc(C(=O)c2ccccc2)cc1[Se][Se]c1cc(C(=O)c2ccccc2)ccc1N
a: 300

q: Note, next up: O=C(c1cccnc1)c1ccc2[nH]c(=O)[se]c2c1
a: 0

q: Note, next up: Cn1c(=O)[se]c2cc(C(=O)c3cccnc3)ccc21
a: 0

q: Note, next up: O=c1c2ccccc2[se]n1-c1ccccc1
a: 100

---

- ASSAY COMMENT: Inhibition of [Fe(2+)]/ascorbate-induced lipid peroxidation at 10e-5 M in rat brain homogenate
inhibition for assorted compounds
Numbers only; they are read as %.

Solved cases (3 shown):
COMPOUND | MEASURED PROPERTY | MEASURE UNIT | REPORTED VALUE
CCCC(=O)c1ccc2c(c1)[se]c(=O)n2C | inhibition | % | -3
CNc1ccccc1[Se][Se]c1ccccc1NC | inhibition | % | 37
Nc1ccc(C(=O)c2ccc(Cl)cc2)cc1[Se][Se]c1cc(C(=O)c2ccc(Cl)cc2)ccc1N | inhibition | % | 100

q: I am curious: what inhibition value has been reported for O=C(c1cccnc1)c1ccc2[nH]c(=O)[se]c2c1 ?
a: -8

q: Note, next up: CN(C)C(=O)Nc1ccc(C(=O)c2ccccc2)cc1[Se][Se]c1cc(C(=O)c2ccccc2)ccc1NC(=O)N(C)C
a: 99

q: Note, next up: CCCC(=O)c1ccc2[nH]c(=O)[se]c2c1
a: -2

q: Note, next up: CC(=O)c1ccc2[nH]c(=O)[se]c2c1
a: 6

q: Note, next up: O=C(c1ccccc1)c1ccc2[nH]c(=O)[se]c2c1
a: -3

q: Note, next up: CC(=O)c1ccc(N)c([Se][Se]c2cc(C(C)=O)ccc2N)c1
a: 99

---

- ASSAY COMMENT: In vitro glutathione peroxidase activity at 2*10e-7M using hydrogen peroxide, activity given in percentage of ebselen''s activity
- Assay type: functional
GSH-Px activity for assorted molecules
# output: bare number, no unit

MOLECULE | GSH-Px activity
Nc1ccc(C(=O)c2ccccc2)cc1[Se][Se]c1cc(C(=O)c2ccccc2)ccc1N | 261
O=C(c1cccnc1)c1ccc2[nH]c(=O)[se]c2c1 | 0
CC(=O)c1ccc2[nH]c(=O)[se]c2c1 | 0

# next molecule below
q: I am curious: what GSH-Px activity value has been reported for O=C(c1ccc(Cl)cc1)c1ccc2[nH]c(=O)[se]c2c1 ?
a: 0

FYI, the data here is from ChEMBL document CHEMBL1127451.
